biological target: UniProtKB P35346; assay: Displacement of 125I-[LTT]-SRIF-28 from human sst5 receptor in HEK293 cells after 2 hrs by autoradiography
Sequence (P35346 whole entry): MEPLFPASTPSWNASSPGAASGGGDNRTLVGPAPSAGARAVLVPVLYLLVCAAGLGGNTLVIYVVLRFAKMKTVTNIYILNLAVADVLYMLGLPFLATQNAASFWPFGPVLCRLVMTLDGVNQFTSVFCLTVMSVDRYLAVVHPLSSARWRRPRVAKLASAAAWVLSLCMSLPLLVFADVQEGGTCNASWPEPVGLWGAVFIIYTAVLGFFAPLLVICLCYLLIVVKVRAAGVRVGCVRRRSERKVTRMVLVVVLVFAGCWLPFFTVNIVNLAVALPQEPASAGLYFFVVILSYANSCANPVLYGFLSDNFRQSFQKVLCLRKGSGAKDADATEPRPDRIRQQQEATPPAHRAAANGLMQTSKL
pIC50: −log10 of the molar value.
MEASURED_METRIC: pIC50

Challenge: Return value of pIC50 for input C[C@H](N)C(=O)NCC(=O)N[C@H]1CSSC[C@@H](C(=O)O)NC(=O)[C@H](CO)NC(=O)[C@H]([C@@H](C)O)NC(=O)[C@H](Cc2ccccc2)NC(=O)[C@H]([C@@H](C)O)NC(=O)[C@H](CCCCN)NC(=O)[C@H](Cc2cn(Cc3ccccc3)cn2)NC(=O)[C@H](Cc2ccccc2)NC(=O)[C@H](Cc2ccccc2)NC(=O)[C@H](CC(N)=O)NC(=O)[C@H](CCCCN)NC1=O , no commentary.
Response given: < 6.00

----------
target: Somatostatin receptor type 3 (Homo sapiens, UniProt P32745); experiment: Agonist activity at human sst3 receptor expressed in CCL39 cells after 5 hrs by luciferase reporter gene assay; type: functional, cell-based
Sequence (P32745 whole entry): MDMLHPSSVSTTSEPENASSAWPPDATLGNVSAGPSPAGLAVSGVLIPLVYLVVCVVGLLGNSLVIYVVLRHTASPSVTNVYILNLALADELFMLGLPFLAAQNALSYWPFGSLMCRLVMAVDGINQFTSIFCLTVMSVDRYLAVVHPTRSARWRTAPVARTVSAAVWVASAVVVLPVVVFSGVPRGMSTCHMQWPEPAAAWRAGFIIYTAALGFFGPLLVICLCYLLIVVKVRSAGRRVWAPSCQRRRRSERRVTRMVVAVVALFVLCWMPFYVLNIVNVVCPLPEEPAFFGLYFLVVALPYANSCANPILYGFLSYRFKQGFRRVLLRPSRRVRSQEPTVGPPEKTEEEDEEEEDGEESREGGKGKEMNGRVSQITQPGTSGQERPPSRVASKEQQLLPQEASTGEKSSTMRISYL
Where a SMILES comes first, the peptide text is derived from it. Bridges are numbered along the chain shown (N, C = ends). [ ]: non-standard residue; d: D form.
MEASURED_METRIC: pEC50
One number for each entry, as −log10 of the molar value.

C[C@@H](O)[C@@H]1NC(=O)[C@H](CCCCN)NC(=O)[C@@H](Cc2c[nH]c3ccccc23)NC(=O)[C@H](Cc2ccccc2)NC(=O)[C@H](Cc2ccccc2)NC(=O)[C@@H](N)CSSC[C@@H](C(=O)O)NC(=O)[C@H](Cc2ccccc2)NC1=O (H-CFF[dW]KTFC-OH; disulfide 1-8): 8.48
C[C@@H](O)[C@@H]1NC(=O)[C@H](CCCCN)NC(=O)[C@@H](Cc2ccc3ccccc3c2)NC(=O)[C@H](Cc2ccccc2)NC(=O)[C@H](Cc2ccccc2)NC(=O)[C@@H](N)CSSC[C@@H](C(=O)O)NC(=O)[C@H](Cc2ccccc2)NC1=O: 9.28

Now for another entry.
Challenge: Look up and report measured pEC50 (Somatostatin receptor type 3 (Homo sapiens, UniProt P32745)) for the following molecule: C[C@H](N)C(=O)NCC(=O)N[C@H]1CSSC[C@@H](C(=O)O)NC(=O)[C@H](CO)NC(=O)[C@H]([C@@H](C)O)NC(=O)[C@H](Cc2ccccc2)NC(=O)[C@H]([C@@H](C)O)NC(=O)[C@H](CCCCN)NC(=O)[C@@H](Cc2ccc(O)cc2)NC(=O)[C@H](Cc2ccccc2)NC(=O)[C@H](Cc2ccccc2)NC(=O)[C@H](CC(N)=O)NC(=O)[C@H](CCCCN)NC1=O
Response given: 9.06

----------
molecular target: Somatostatin receptor type 3 (Homo sapiens, UniProt P32745); experiment: Induction of sst3 receptor internalization in human HEK cells after 30 mins by immunofluorescence microscopy; assay type: cell-based; settings: HEK293
Activity calls are given as the source filed them. No cut-off for these calls is given here. Where a SMILES comes first, the peptide text is derived from it. Bridges are numbered along the chain shown (N, C = ends).
MEASURED_METRIC: Activity

C[C@@H](O)[C@@H]1NC(=O)[C@H](CCCCN)NC(=O)[C@H](Cc2c[nH]c3ccccc23)NC(=O)[C@H](Cc2ccccc2)NC(=O)[C@H](Cc2ccccc2)NC(=O)[C@@H](N)CSSC[C@@H](C(=O)O)NC(=O)[C@H](Cc2ccccc2)NC1=O (H-CFFWKTFC-OH; disulfide 1-8): Active
C[C@H](N)C(=O)NCC(=O)N[C@H]1CSSC[C@@H](C(=O)O)NC(=O)[C@H](CO)NC(=O)[C@H]([C@@H](C)O)NC(=O)[C@H](Cc2ccccc2)NC(=O)[C@H]([C@@H](C)O)NC(=O)[C@H](CCCCN)NC(=O)[C@@H](Cc2ccc(O)cc2)NC(=O)[C@H](Cc2ccccc2)NC(=O)[C@H](Cc2ccccc2)NC(=O)[C@H](CC(N)=O)NC(=O)[C@H](CCCCN)NC1=O: Active
C[C@H](N)C(=O)NCC(=O)N[C@H]1CSSC[C@@H](C(=O)O)NC(=O)[C@H](CO)NC(=O)[C@H]([C@@H](C)O)NC(=O)[C@H](Cc2ccccc2)NC(=O)[C@H]([C@@H](C)O)NC(=O)[C@H](CCCCN)NC(=O)[C@@H](Cc2cn(Cc3ccccc3)cn2)NC(=O)[C@H](Cc2ccccc2)NC(=O)[C@H](Cc2ccccc2)NC(=O)[C@H](CC(N)=O)NC(=O)[C@H](CCCCN)NC1=O: Active

----------
molecular target: Somatostatin receptor type 3 (Homo sapiens); assay: Displacement of 125I-[LTT]-SRIF-28 from human sst3 receptor in CCL39 cells after 2 hrs by autoradiography; format: cell-based
For each of the compounds below, state its IC50.
# number then unit; no other words

C[C@@H](O)[C@@H]1NC(=O)[C@H](CCCCN)NC(=O)[C@H](Cc2cn(Cc3ccccc3)cn2)NC(=O)[C@H](Cc2ccccc2)NC(=O)[C@H](Cc2ccccc2)NC(=O)[C@@H](N)CSSC[C@@H](C(=O)O)NC(=O)[C@H](Cc2ccccc2)NC1=O: 164 nM

For every item below, please supply its IC50.
1. C[C@@H](O)[C@@H]1NC(=O)[C@H](CCCCN)NC(=O)[C@@H](Cc2cn(Cc3ccccc3)cn2)NC(=O)[C@H](Cc2ccccc2)NC(=O)[C@H](Cc2ccccc2)NC(=O)[C@@H](N)CSSC[C@@H](C(=O)O)NC(=O)[C@H](Cc2ccccc2)NC1=O
2. C[C@H](N)C(=O)NCC(=O)N[C@H]1CSSC[C@@H](C(=O)O)NC(=O)[C@H](CO)NC(=O)[C@H]([C@@H](C)O)NC(=O)[C@H](Cc2ccccc2)NC(=O)[C@H]([C@@H](C)O)NC(=O)[C@H](CCCCN)NC(=O)[C@@H](Cc2ccc3ccccc3c2)NC(=O)[C@H](Cc2ccccc2)NC(=O)[C@H](Cc2ccccc2)NC(=O)[C@H](CC(N)=O)NC(=O)[C@H](CCCCN)NC1=O

Response given:
["75 nM", "1 nM"]

----------
For each entry below, report its IC50 value.
target: Somatostatin receptor type 3 (Homo sapiens, UniProt P32745); assay: Displacement of 125I-[LTT]-SRIF-28 from human sst3 receptor in CCL39 cells after 2 hrs by autoradiography
Please answer using a numeric value trailed by its unit.

C[C@H](N)C(=O)NCC(=O)N[C@H]1CSSC[C@@H](C(=O)O)NC(=O)[C@H](CO)NC(=O)[C@H]([C@@H](C)O)NC(=O)[C@H](Cc2ccccc2)NC(=O)[C@H]([C@@H](C)O)NC(=O)[C@H](CCCCN)NC(=O)[C@@H](Cc2cn(Cc3ccccc3)cn2)NC(=O)[C@H](Cc2ccccc2)NC(=O)[C@H](Cc2ccccc2)NC(=O)[C@H](CC(N)=O)NC(=O)[C@H](CCCCN)NC1=O: 0.015 µM

Switching to the query record.
Challenge: Return reported IC50. Input molecule: C[C@H](N)C(=O)NCC(=O)N[C@H]1CSSC[C@@H](C(=O)O)NC(=O)[C@H](CO)NC(=O)[C@H]([C@@H](C)O)NC(=O)[C@H](Cc2ccccc2)NC(=O)[C@H]([C@@H](C)O)NC(=O)[C@H](CCCCN)NC(=O)[C@H](Cc2cn(Cc3ccccc3)cn2)NC(=O)[C@H](Cc2ccccc2)NC(=O)[C@H](Cc2ccccc2)NC(=O)[C@H](CC(N)=O)NC(=O)[C@H](CCCCN)NC1=O
Response given: 0.131 µM

----------
Record form. Attribute: IC50. Fill in for each entry.
molecular target: Somatostatin receptor type 2 (Homo sapiens, UniProt P30874); test: Displacement of 125I-[LTT]-SRIF-28 from human sst2 receptor in CCL39 cells after 2 hrs by autoradiography
Sequence (P30874 whole entry): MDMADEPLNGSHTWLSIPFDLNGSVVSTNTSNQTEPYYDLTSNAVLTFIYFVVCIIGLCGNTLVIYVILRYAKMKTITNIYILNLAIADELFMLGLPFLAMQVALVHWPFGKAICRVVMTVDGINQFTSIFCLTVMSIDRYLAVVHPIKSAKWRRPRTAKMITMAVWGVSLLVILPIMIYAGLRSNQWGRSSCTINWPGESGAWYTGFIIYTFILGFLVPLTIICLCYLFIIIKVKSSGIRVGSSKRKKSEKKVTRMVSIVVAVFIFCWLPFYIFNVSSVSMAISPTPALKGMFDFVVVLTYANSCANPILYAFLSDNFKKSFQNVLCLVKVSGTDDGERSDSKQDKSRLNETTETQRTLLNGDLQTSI

Could you tell me IC50 for each of these molecules? They are listed below.
1. C[C@@H](O)[C@@H]1NC(=O)[C@H](CCCCN)NC(=O)[C@@H](Cc2cn(Cc3ccccc3)cn2)NC(=O)[C@H](Cc2ccccc2)NC(=O)[C@H](Cc2ccccc2)NC(=O)[C@@H](N)CSSC[C@@H](C(=O)O)NC(=O)[C@H](Cc2ccccc2)NC1=O
2. C[C@H](N)C(=O)NCC(=O)N[C@H]1CSSC[C@@H](C(=O)O)NC(=O)[C@H](CO)NC(=O)[C@H]([C@@H](C)O)NC(=O)[C@H](Cc2ccccc2)NC(=O)[C@H]([C@@H](C)O)NC(=O)[C@H](CCCCN)NC(=O)[C@@H](Cc2ccc3ccccc3c2)NC(=O)[C@H](Cc2ccccc2)NC(=O)[C@H](Cc2ccccc2)NC(=O)[C@H](CC(N)=O)NC(=O)[C@H](CCCCN)NC1=O
3. C[C@H](N)C(=O)NCC(=O)N[C@H]1CSSC[C@@H](C(=O)O)NC(=O)[C@H](CO)NC(=O)[C@H]([C@@H](C)O)NC(=O)[C@H](Cc2ccccc2)NC(=O)[C@H]([C@@H](C)O)NC(=O)[C@H](CCCCN)NC(=O)[C@H](Cc2ccc(O)cc2)NC(=O)[C@H](Cc2ccccc2)NC(=O)[C@H](Cc2ccccc2)NC(=O)[C@H](CC(N)=O)NC(=O)[C@H](CCCCN)NC1=O

Response given:
> 1000 nM
1.6 nM
35 nM
